The measured values listed here are drawn from patent US11149031B2.

System: MCF7 cells (breast tumor cells) WT
assay_summary: Test B: cell proliferation/viability assay (CellTiter-Glo) on MCF7 WT
Format: cell-based
conditions_used: Homo sapiens, MCF7, 168 h, 7 days of compound exposure
This section presents compounds with their documented log10 of IC50 values.
A value of 2 here means IC50 of 100 in nM, since values are log10.

The compound Oc1ccc2c(c1F)OCCC(c1ccc3c(c1)CCN3)=C2c1ccc(O[C@H]2CCN(CCCF)C2)cc1 showed log10 of IC50 equal to 1.28

The compound COc1c(C(=O)O)cccc1C1=C(c2ccc(O[C@H]3CCN(CCCF)C3)cc2)c2ccc(O)cc2OCC1 showed log10 of IC50 equal to 2.35

The compound CCOc1ccc(C2=C(c3ccc(O[C@H]4CCN(CCCF)C4)cc3)c3ccc(O)cc3SC2)c(F)c1 showed log10 of IC50 equal to -0.05

The compound Cc1ccc(C2=C(c3cnc(O[C@H]4CCN(CCCF)C4)nc3)c3ccc(O)cc3SC2)c(F)c1 showed log10 of IC50 equal to 0.30

The compound Cc1cc(C2=C(c3ccc(O[C@H]4CCN(CCCF)C4)cc3)c3ccc(O)cc3SCC2)ccc1Cl showed log10 of IC50 equal to -0.40

The compound Oc1ccc2c(c1)OCCC(c1ccc3cc[nH]c3c1)=C2c1ccc(O[C@H]2CCN(CCCF)C2)cc1 showed log10 of IC50 equal to -0.52

The compound COc1ccc(C2=C(c3ccc(O[C@H]4CCN(CCCF)C4)cc3)c3ccc(O)cc3SC2)c(F)n1 showed log10 of IC50 equal to -1.00

The compound Oc1ccc2c(c1)OCCC(c1ccc3c(c1)CCO3)=C2c1ccc(O[C@H]2CCN(CCCF)C2)cc1 showed log10 of IC50 equal to -0.52

The compound Oc1ccc2c(c1)SCCC(c1ccc(Cl)cc1Cl)=C2c1ccc(O[C@H]2CCN(CCCF)C2)cc1 showed log10 of IC50 equal to -0.70

The compound CCOc1ccc(C2=C(c3ccc(O[C@H]4CCN(CCCF)C4)cc3)c3ccc(O)cc3OCC2)c(Cl)c1 showed log10 of IC50 equal to -0.52

The compound Oc1ccc2c(c1)SCCC(c1cnc3c(c1)CCN3)=C2c1ccc(O[C@H]2CCN(CCCF)C2)cc1 showed log10 of IC50 equal to 0.00
